biological target: recombinant soluble homotrimeric HA of A/Japan/305/57 (H2N2) (Influenza A virus A/Japan/305/1957(H2N2)); assay: trimeric HA microarray, transfection supernatant set 3; settings: remark: other sources report otherwise
The following binders are shown together with reported Trimeric HA Binding: RLU values.
State just the number; it will be interpreted in RLU.

Input TCN-532 (5262_H18) (antibody, V domains shown) VH: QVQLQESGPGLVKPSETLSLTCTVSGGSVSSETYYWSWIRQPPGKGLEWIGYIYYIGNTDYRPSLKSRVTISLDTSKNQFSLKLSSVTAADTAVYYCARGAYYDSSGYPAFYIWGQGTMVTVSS VL: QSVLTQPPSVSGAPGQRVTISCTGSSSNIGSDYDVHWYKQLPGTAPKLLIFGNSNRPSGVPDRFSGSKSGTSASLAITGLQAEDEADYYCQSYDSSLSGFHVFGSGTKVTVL . Output Trimeric HA Binding: RLU: 441

Reported Trimeric HA Binding: RLU for TCN-523 (5248_A17) (antibody, V domains shown) VH: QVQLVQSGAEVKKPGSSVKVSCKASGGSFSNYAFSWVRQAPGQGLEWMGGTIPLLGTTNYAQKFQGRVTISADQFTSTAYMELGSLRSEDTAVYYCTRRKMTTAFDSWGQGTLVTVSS VL: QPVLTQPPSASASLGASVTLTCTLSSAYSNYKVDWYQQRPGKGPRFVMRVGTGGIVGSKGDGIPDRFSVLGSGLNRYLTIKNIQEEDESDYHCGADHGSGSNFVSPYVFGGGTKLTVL was 4550

The binder listed as TCN-504 (3251_K17) (antibody, V domains shown) VH: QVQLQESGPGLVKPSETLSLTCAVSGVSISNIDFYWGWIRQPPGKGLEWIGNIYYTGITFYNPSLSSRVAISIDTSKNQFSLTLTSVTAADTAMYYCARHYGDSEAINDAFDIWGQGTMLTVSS VL: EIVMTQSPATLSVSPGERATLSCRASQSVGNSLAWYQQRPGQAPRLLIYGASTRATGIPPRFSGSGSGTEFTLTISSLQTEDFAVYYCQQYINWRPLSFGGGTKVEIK shows Trimeric HA Binding: RLU equal to 36000

Field Trimeric HA Binding: RLU (entry TCN-529 (5297_H01) (antibody, V domains shown) VH: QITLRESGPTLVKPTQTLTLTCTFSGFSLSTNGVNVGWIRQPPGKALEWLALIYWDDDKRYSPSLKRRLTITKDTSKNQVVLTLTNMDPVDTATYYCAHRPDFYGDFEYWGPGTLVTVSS VL: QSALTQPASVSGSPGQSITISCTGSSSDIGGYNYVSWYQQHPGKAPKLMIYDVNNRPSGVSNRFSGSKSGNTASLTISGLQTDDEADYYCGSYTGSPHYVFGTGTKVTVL ) reads 45

Entry TCN-530 (5248_H10a) (antibody, V domains shown) VH: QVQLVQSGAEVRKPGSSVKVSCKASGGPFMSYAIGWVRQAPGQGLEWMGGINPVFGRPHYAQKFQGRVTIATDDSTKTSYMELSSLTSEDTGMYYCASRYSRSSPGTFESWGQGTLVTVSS VL: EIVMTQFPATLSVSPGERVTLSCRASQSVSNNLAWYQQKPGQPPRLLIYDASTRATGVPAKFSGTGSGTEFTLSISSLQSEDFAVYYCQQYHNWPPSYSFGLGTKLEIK ; Trimeric HA Binding: RLU = 5170
